Where do the numbers come from? From the supplement of paper PMC10567573.

B1: MFF (parent)
chain: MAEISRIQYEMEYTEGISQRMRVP

variants of: B1; test: protein stability index of a GFP-peptide fusion (GPS, HEK-293T) (PSI 1-6); higher = more stable; conditions: c terminus: a fixed tail appended;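 further: lentivirally expressed fusions sorted by FACS into six bins by GFP to DsRed ratio, PSI derived from sequencing read proportions per bin multiplied by bin number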
Measured quantity: protein stability index

Sample answers from the record:
P24T 3.42
P24G 2.44
I17D 3.95
M1R 3.1
I17W 2.25

Would you kindly look at the next entry?
## Task Which protein stability index value belongs to `P24D` ?
## Result 2.7
